Measured Lattice size by item
- PROCEDURE DETAILS: SAXS of mixtures of GMO and excipient/active ingredient immersed in PBS (liquid crystal phase and lattice size)
- Assay type: physicochemical
- CONDITION SUMMARY: Concentration in GMO 10%; second value of the cell (second phase)
State the answer as a number, implicitly in Å.

INSERT INTO results (molecule, endpoint_value) VALUES
  ('CCCCCCCC/C=C\CCCCCCCC(=O)OCCOCC(OCCO)C1OCC(OCCO)C1OCCO (centres unmarked)', 139);

Name the reported Lattice size value associated with the molecule CC(C)c1nc(N(C)S(C)(=O)=O)nc(-c2ccc(F)cc2)c1/C=C/[C@@H](O)C[C@@H](O)CC(=O)O
131

---

- PROCEDURE DETAILS: SAXS of mixtures of GMO and excipient/active ingredient immersed in PBS (liquid crystal phase and lattice size)
- Type: physicochemical
- CONDITION SUMMARY: Concentration in GMO 5%; first value of the cell (first phase listed)
ASSAY READOUT: Lattice size (Å)
State the answer as a number, implicitly in Å.

See these solved cases before continuing.
INSERT INTO results (compound, endpoint_value) VALUES
  ('CC(C)c1c(C(=O)Nc2ccccc2)c(-c2ccccc2)c(-c2ccc(F)cc2)n1CC[C@@H](O)C[C@@H](O)CC(=O)O [Atorvastatin]', 99.2),
  ('CC(C)c1nc(N(C)S(C)(=O)=O)nc(-c2ccc(F)cc2)c1/C=C/[C@@H](O)C[C@@H](O)CC(=O)O [Rosuvastatin]', 109),
  ('O=C1NS(=O)(=O)c2ccccc21.[Na] [Saccharin sodium]', 107),
  ('CCCCCCCC/C=C\CCCCCCCC(=O)OCCOCC(OCCO)C1OCC(OCCO)C1OCCO (stereo not drawn) [Tween 80]', 97.9),
  ('O=S(=O)([O-])NC1CCCCC1.[Na+] [Sodium cyclamate]', 103);

Attention now turns to another entry.
Name the reported Lattice size value associated with the compound CCCCCCCCCCCCOS(=O)(=O)[O-].[Na+] [SLS, sodium lauryl sulphate]
116

---

Measured Lattice size by item
- PROCEDURE DETAILS: SAXS of mixtures of GMO and excipient/active ingredient immersed in PBS (liquid crystal phase and lattice size)
- Format: physicochemical
- CONDITION SUMMARY: Concentration in GMO 1%; first value of the cell (first phase listed)
Give me the value, and tack the unit on after it.

See these solved cases before continuing.
INSERT INTO assay_data (compound, endpoint_value) VALUES
  ('CC(C)c1nc(N(C)S(C)(=O)=O)nc(-c2ccc(F)cc2)c1/C=C/[C@@H](O)C[C@@H](O)CC(=O)O', '84.2 Å'),
  ('CC(C)c1c(C(=O)Nc2ccccc2)c(-c2ccccc2)c(-c2ccc(F)cc2)n1CC[C@@H](O)C[C@@H](O)CC(=O)O', '93.1 Å'),
  ('CCCCCCCCCCCCOS(=O)(=O)[O-].[Na+] [SLS, sodium lauryl sulphate]', '95.4 Å');

Name the reported Lattice size value associated with the compound O=S(=O)([O-])NC1CCCCC1.[Na+] [Sodium cyclamate]
93.1 Å

What do you get for CCCCCCCC/C=C\CCCCCCCC(=O)OCCOCC(OCCO)C1OCC(OCCO)C1OCCO (stereo not drawn) ?
91.9 Å

What do you get for O=C1NS(=O)(=O)c2ccccc21.[Na] [Saccharin sodium] ?
95.4 Å

---

- PROCEDURE DETAILS: SAXS of mixtures of GMO and excipient/active ingredient immersed in PBS (liquid crystal phase and lattice size)
- Type: physicochemical
- CONDITION SUMMARY: Concentration in GMO 15%; first value of the cell (first phase listed)
ASSAY READOUT: Lattice size
Give me the value, and tack the unit on after it.

INSERT INTO results (molecule, assay_readout, endpoint_value) VALUES
  ('CC(C)c1nc(N(C)S(C)(=O)=O)nc(-c2ccc(F)cc2)c1/C=C/[C@@H](O)C[C@@H](O)CC(=O)O [Rosuvastatin]', 'Lattice size', '122 Å');

Attention now turns to another entry.
Name the reported Lattice size value associated with the molecule CC(C)c1c(C(=O)Nc2ccccc2)c(-c2ccccc2)c(-c2ccc(F)cc2)n1CC[C@@H](O)C[C@@H](O)CC(=O)O [Atorvastatin]
101 Å

---

- PROCEDURE DETAILS: SAXS of mixtures of GMO and excipient/active ingredient immersed in PBS (liquid crystal phase and lattice size)
- Format: physicochemical
- CONDITION SUMMARY: Concentration in GMO 35%; first value of the cell (first phase listed)
ASSAY READOUT: Lattice size (Å)
State the answer as a number, implicitly in Å.

Name the reported Lattice size value associated with the molecule CC(C)c1c(C(=O)Nc2ccccc2)c(-c2ccccc2)c(-c2ccc(F)cc2)n1CC[C@@H](O)C[C@@H](O)CC(=O)O
105

---

- PROCEDURE DETAILS: SAXS of mixtures of GMO and excipient/active ingredient immersed in PBS (liquid crystal phase and lattice size)
- Format: physicochemical
- CONDITION SUMMARY: Concentration in GMO 10%; PBS buffer pH 6.8, ~22° C.
ASSAY READOUT: Phase structure

INSERT INTO measurements (compound, endpoint_value) VALUES
  ('CCCCCCCC/C=C\CCCCCCCC(=O)OCCOCC(OCCO)C1OCC(OCCO)C1OCCO (stereo not drawn)', 'V2(Pn3m)'),
  ('CC(C)c1nc(N(C)S(C)(=O)=O)nc(-c2ccc(F)cc2)c1/C=C/[C@@H](O)C[C@@H](O)CC(=O)O', 'V2(Pn3m)'),
  ('CCCCCCCCCCCCOS(=O)(=O)[O-].[Na+] [SLS, sodium lauryl sulphate]', 'V2(Pn3m)'),
  ('CC(C)c1c(C(=O)Nc2ccccc2)c(-c2ccccc2)c(-c2ccc(F)cc2)n1CC[C@@H](O)C[C@@H](O)CC(=O)O', 'V2(Pn3m)');

---

- PROCEDURE DETAILS: SAXS of mixtures of GMO and excipient/active ingredient immersed in PBS (liquid crystal phase and lattice size)
- Assay type: physicochemical
- CONDITION SUMMARY: Concentration in GMO 15%; second value of the cell (second phase)
- Method: The samples were then mixed via a roller mixer at ˜10 RPM at 40° C. for at least 3 days. One week prior to SAXS experiment, 100 mg samples were loaded into a transparent polystyrene 96 well plate (Nunc™) and immersed in 200 μL of PBS buffer (pH 6.8). […] Data were obtained at ambient temperature (˜22° C.). […] The 2-D diffraction images were recorded on a Pilatus 1M detector and radially integrated using the in-house software “ScatterBrain”.
ASSAY READOUT: Lattice size (Å)
State the answer as a number, implicitly in Å.

Name the reported Lattice size value associated with the compound CC(C)c1nc(N(C)S(C)(=O)=O)nc(-c2ccc(F)cc2)c1/C=C/[C@@H](O)C[C@@H](O)CC(=O)O
148

---

- PROCEDURE DETAILS: SAXS of mixtures of GMO and excipient/active ingredient immersed in PBS (liquid crystal phase and lattice size)
- Assay type: physicochemical
- CONDITION SUMMARY: ingredient 1 to 50% in GMO
ASSAY READOUT: V2(Pn3m) lattice size

Name the reported V2(Pn3m) lattice size value associated with the compound OC[C@@H](O)[C@@H](O)[C@H](O)[C@@H](O)CO
83 to 92 Å
